biological target: IRAK4 (Homo sapiens (Human), UniProt Q9NWZ3); assay: IRAK4 Degradation HiBiT Assay; details: read-out: Cellular IRAK4 HiBiT: DC50; Table 4; HiBiT-tagged Jurkat cells, 4 hrs
Sequence (Q9NWZ3 whole entry): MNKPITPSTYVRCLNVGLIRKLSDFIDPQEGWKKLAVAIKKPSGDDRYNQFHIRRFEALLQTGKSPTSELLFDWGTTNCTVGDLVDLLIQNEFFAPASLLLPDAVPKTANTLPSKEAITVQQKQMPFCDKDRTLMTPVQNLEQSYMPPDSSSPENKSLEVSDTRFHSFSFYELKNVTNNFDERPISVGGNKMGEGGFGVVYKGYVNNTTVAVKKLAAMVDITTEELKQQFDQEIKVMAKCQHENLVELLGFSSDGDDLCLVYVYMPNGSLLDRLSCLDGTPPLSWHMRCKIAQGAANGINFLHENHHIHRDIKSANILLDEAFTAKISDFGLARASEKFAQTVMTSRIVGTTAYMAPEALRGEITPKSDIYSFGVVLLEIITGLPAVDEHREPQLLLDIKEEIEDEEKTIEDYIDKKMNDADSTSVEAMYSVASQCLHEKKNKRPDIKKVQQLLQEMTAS
Here, each record is paired with measured DC50 data.
assay_endpoint: DC50 (nM)

compound="CC(C)Nc1cc(-c2ccc3cc(C#N)cnn23)ncc1-c1nnc(N2CCC(NCC3CCN(c4ccc5c(c4)C(=O)N(C4CCC(=O)NC4=O)C5=O)CC3)CC2)s1 (centres unmarked)" unit_abbreviation=nM observed_value=232
compound=CNc1cc(-c2ccc3cc(C#N)cnn23)ncc1-c1nnc([C@H]2CC[C@H](NC(=O)CCCCC(=O)N[C@H](C(=O)N3C[C@H](O)C[C@H]3C(=O)N[C@@H](C)c3ccc(-c4scnc4C)cc3)C(C)(C)C)CC2)s1 unit_abbreviation=nM observed_value=89.6
compound="CC(C)Nc1cc(-c2ccc3cc(C#N)cnn23)ncc1-c1nnc(N2CCN(CCC3CCN(c4ccc5c(c4)C(=O)N(C4CCC(=O)NC4=O)C5=O)CC3)CC2)s1 (centres unmarked)" unit_abbreviation=nM observed_value=127
compound="CC(C)Nc1cc(-c2ccc3cc(C#N)cnn23)ncc1-c1nnc(N2CCN(CCCc3ccc4c(c3)CN(C3CCC(=O)NC3=O)C4=O)CC2)s1 (centres unmarked)" unit_abbreviation=nM observed_value=70.6
compound=CNc1cc(-c2ccc3cc(C#N)cnn23)ncc1-c1nnc([C@H]2CC[C@H](NC(=O)CCC(=O)N[C@H](C(=O)N3C[C@H](O)C[C@H]3C(=O)N[C@@H](C)c3ccc(-c4scnc4C)cc3)C(C)(C)C)CC2)s1 unit_abbreviation=nM observed_value=77.6

* * *

target: UniProtKB Q9NWZ3; assay: IRAK4 Degradation HiBiT Assay; settings: read-out: Cellular IRAK4 HiBiT: DC50; Table 5; multiple runs; HiBiT-tagged Jurkat cells, 4 hrs
Recorded log10 DC50, one value per entry.
assay_endpoint: log10 DC50 (log10 of the value in nM)

molecule="CNc1cc(-c2ccc3cc(C#N)cnn23)ncc1-c1nnc(N2CC3(CCN(CC4CCN(c5ccc(C(=O)NC6CCC(=O)NC6=O)cc5)CC4)CC3)C2)s1 (stereo not shown)" assay_endpoint="log10 DC50" observed_value=2.20
molecule="CC(C)Nc1cc(-c2ccc3cc(C#N)cnn23)ncc1-c1nnc(N2CCN(C(=O)CCCCCCCNc3cccc4c3C(=O)N(C3CCC(=O)NC3=O)C4=O)CC2)s1 (stereo not shown)" assay_endpoint="log10 DC50" observed_value=1.73
molecule="CCN(C(=O)C[C@H](NC(=O)[C@@H]1C[C@@H](O)CN1C(=O)C(c1cc(C)no1)C(C)C)c1ccc(-c2scnc2C)cc1)[C@H]1CC[C@H](c2nnc(-c3cnc(-c4ccc5cc(C#N)cnn45)cc3NC)s2)CC1 (stereo partly shown)" assay_endpoint="log10 DC50" observed_value=1.70
molecule="CNc1cc(-c2ccc3cc(C#N)cnn23)ncc1-c1nnc(C23CCC(NC(=O)[C@H]4C[C@@H](OCCNc5cccc6c5C(=O)N(C5CCC(=O)NC5=O)C6=O)C4)(CC2)CC3)s1 (stereo partly shown)" assay_endpoint="log10 DC50" observed_value=1.33
molecule="CC(C)Nc1cc(-c2ccc3cc(C#N)cnn23)ncc1-c1nnc(N2CCN(CCCc3cccc4c3CN(C3CCC(=O)NC3=O)C4=O)CC2)s1 (stereo not shown)" assay_endpoint="log10 DC50" observed_value=2.13
molecule="CNc1cc(-c2ccc3cc(C#N)cnn23)ncc1-c1nnc([C@H]2CC[C@H](NC(=O)[C@H]3CC[C@H]3C(=O)N[C@H](C(=O)N3C[C@H](O)C[C@H]3C(=O)N[C@@H](C)c3ccc(-c4scnc4C)cc3)C(C)(C)C)CC2)s1 (racemic)" assay_endpoint="log10 DC50" observed_value=2.94
molecule="CNc1cc(-c2ccc3cc(C#N)cnn23)ncc1-c1nnc(C23CCC(NC(=O)CCCCCCCNc4ccc5c(c4)C(=O)N(C4CCC(=O)NC4=O)C5=O)(CC2)CC3)s1 (stereo not shown)" assay_endpoint="log10 DC50" observed_value=2.00
molecule=CNc1cc(-c2ccc3cc(C#N)cnn23)ncc1-c1nnc(C23CCC(NC(=O)[C@H]4CC[C@H](C(=O)N[C@H](C(=O)N5C[C@H](O)C[C@H]5C(=O)NCc5ccc(-c6scnc6C)cc5)C(C)(C)C)CC4)(CC2)CC3)s1 assay_endpoint="log10 DC50" observed_value=2.10
molecule=Cc1ncsc1-c1ccc([C@H](C)NC(=O)[C@@H]2C[C@@H](O)CN2C(=O)[C@@H](NC(=O)CCCCC(=O)N2CCN(c3nnc(-c4cnc(-c5ccc6cc(C#N)cnn56)cc4NC(C)C)s3)CC2)C(C)(C)C)cc1 assay_endpoint="log10 DC50" observed_value=2.55
molecule="CNc1cc(-c2ccc3cc(C#N)cnn23)ncc1-c1nnc([C@H]2CC[C@@H](NC(=O)C3CCN(c4ccc5c(c4)C(=O)N(C4CCC(=O)NC4=O)C5=O)CC3)CC2)s1 (stereo partly shown)" assay_endpoint="log10 DC50" observed_value=1.71
